biological target: TBK1 (Homo sapiens (Human), UniProt Q9UHD2); assay: In vitro TBK1 degradation assay, MDA MB 231 cells (compounds 34-57), immunoblot; type: cell-based; settings: 1 uM compound, 16 h, read-out: % TBK1 remaining at 1 uM Cmpd
Sequence (Q9UHD2 whole entry): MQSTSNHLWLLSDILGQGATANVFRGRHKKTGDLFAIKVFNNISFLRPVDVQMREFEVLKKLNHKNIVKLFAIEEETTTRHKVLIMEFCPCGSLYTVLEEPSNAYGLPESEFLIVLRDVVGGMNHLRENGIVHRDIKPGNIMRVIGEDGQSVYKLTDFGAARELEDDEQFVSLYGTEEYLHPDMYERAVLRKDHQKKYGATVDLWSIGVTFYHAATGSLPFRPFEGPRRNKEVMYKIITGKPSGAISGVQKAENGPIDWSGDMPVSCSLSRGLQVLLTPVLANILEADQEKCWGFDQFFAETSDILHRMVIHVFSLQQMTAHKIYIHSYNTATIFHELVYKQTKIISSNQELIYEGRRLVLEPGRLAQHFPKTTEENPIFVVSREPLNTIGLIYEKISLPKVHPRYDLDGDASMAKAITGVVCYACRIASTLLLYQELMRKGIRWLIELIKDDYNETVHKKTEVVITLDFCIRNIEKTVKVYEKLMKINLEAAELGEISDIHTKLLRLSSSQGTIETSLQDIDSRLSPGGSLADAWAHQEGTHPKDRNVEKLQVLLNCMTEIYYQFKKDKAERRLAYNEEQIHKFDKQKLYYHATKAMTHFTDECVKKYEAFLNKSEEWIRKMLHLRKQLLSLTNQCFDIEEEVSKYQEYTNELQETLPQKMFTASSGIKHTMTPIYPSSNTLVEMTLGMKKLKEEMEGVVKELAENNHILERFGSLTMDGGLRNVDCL
measuredProperty: remaining activity at 1 µM

| compoundString | observedResult |
| --- | --- |
| Cc1ncsc1-c1ccc(CNC(=O)[C@@H]2C[C@@H](O)CN2C(=O)[C@H](C(C)C)N2Cc3ccccc3C2=O)c(OCCCOCCCOc2ccc(Nc3ncc(Br)c(NCCCN(C)C(=O)C4CCC4)n3)cc2)c1 | ≥ 81% |

Query molecule follows.
Query: remaining activity at 1 µM; subject: `Cc1ncsc1-c1ccc(CNC(=O)[C@@H]2C[C@@H](O)CN2C(=O)[C@H](C(C)C)N2Cc3ccccc3C2=O)c(OCCCCOc2ccc(Nc3ncc(Br)c(NCCCN(C)C(=O)C4CCC4)n3)cc2)c1` ≥ 81%

* * *

biological target: UniProt:Q9UHD2; assay: In vitro TBK1 degradation assay, Panc02.13 cells (compounds 3-33), immunoblot; type: cell-based; conditions: TBK1 degradation, Panc02.13 cells, 16 h; mean of ≥ 2 determinations
measuredProperty: Dmax (maximal degradation observed) (%)
Report the value in % with no unit label.

For the compound shown here, `Cc1ncsc1-c1ccc(CNC(=O)[C@@H]2C[C@@H](O)CN2C(=O)[C@@H](NC(=O)COCCCOCCCCOCCCOc2ccc(Nc3ncc(Br)c(NCCCN(C)C(=O)C4CCC4)n3)cc2)C(C)C)cc1` , give the reported Dmax (maximal degradation observed). 88

Entry to check: `Cc1ncsc1-c1ccc(CNC(=O)[C@@H]2C[C@@H](O)CN2C(=O)[C@@H](NC(=O)CCCCCOCCCCOCCCCOc2ccc(Nc3ncc(Br)c(NCCCN(C)C(=O)C4CCC4)n3)cc2)C(C)(C)C)cc1` 90

Another compound to check: `Cc1ncsc1-c1ccc(CNC(=O)[C@@H]2C[C@@H](O)CN2C(=O)[C@@H](NC(=O)COCCOCCOCCOCCOc2ccc(Nc3ncc(Br)c(NCCCN(C)C(=O)C4CCC4)n3)cc2)C(C)(C)C)cc1` 92

* * *

Some compounds, each annotated with its measured remaining activity at 1 µM.
target: TBK1 (Homo sapiens (Human)); assay: In vitro TBK1 degradation assay, MDA MB 231 cells (compounds 34-57), immunoblot; assay type: cell-based; conditions: 1 uM compound, 16 h, read-out: % TBK1 remaining at 1 uM Cmpd

Sample answers from the record:
| compoundString | remaining activity at 1 µM |
| --- | --- |
| Cc1ncsc1-c1ccc(CNC(=O)[C@@H]2C[C@@H](O)CN2C(=O)[C@H](C(C)C)N2Cc3ccccc3C2=O)c(OCCOCCCOc2ccc(Nc3ncc(Br)c(NCCCN(C)C(=O)C4CCC4)n3)cc2)c1 | 41 to 80% |
| Cc1ncsc1-c1ccc(CNC(=O)[C@@H]2C[C@@H](O)CN2C(=O)[C@H](C(C)C)N2Cc3ccccc3C2=O)c(OCCOCCOCCOCCOCCOCCOc2ccc(Nc3ncc(Br)c(NCCCN(C)C(=O)C4CCC4)n3)cc2)c1 | ≥ 81% |
| Cc1ncsc1-c1ccc(CNC(=O)[C@@H]2C[C@@H](O)CN2C(=O)[C@H](C(C)C)N2Cc3ccccc3C2=O)c(OCCOCCOCCOCCOCCOc2ccc(Nc3ncc(Br)c(NCCCN(C)C(=O)C4CCC4)n3)cc2)c1 | ≥ 81% |
| Cc1ncsc1-c1ccc(CNC(=O)[C@@H]2C[C@@H](O)CN2C(=O)[C@H](C(C)C)N2Cc3ccccc3C2=O)c(OCCCOCCCOCCOCCCOCCCOc2ccc(Nc3ncc(Br)c(NCCCN(C)C(=O)C4CCC4)n3)cc2)c1 | 0 to 40% |

Record request: remaining activity at 1 µM value, item `Cc1ncsc1-c1ccc(CNC(=O)[C@@H]2C[C@@H](O)CN2C(=O)[C@@H](NC(=O)COCCCOCCCCOCCCOc2cccc(Nc3ncc4c(n3)N(CCCN(C)C(=O)C3CCC3)CC4)c2)C(C)(C)C)cc1` ≥ 81%

Now the same for `Cc1ncsc1-c1ccc(CNC(=O)[C@@H]2C[C@@H](O)CN2C(=O)[C@@H](NC(=O)COCCCOCCCCOCCCOc2cccc(Nc3ncc(C4CC4)c(NCCCN(C)C(=O)C4CCC4)n3)c2)C(C)(C)C)cc1` ≥ 81%

Query `Cc1ncsc1-c1ccc(CNC(=O)[C@@H]2C[C@@H](O)CN2C(=O)[C@H](C(C)C)N2Cc3ccccc3C2=O)c(OCCOCCOCCOc2ccc(Nc3ncc(Br)c(NCCCN(C)C(=O)C4CCC4)n3)cc2)c1` next ≥ 81%
